test system: Digitaria sanguinalis (DIGSA); assay: Post-emergence herbicidal action against DIGSA; type: in vivo; details: 320 g/ha, visual rating about 3 weeks after treatment
Would you kindly list Post-emergence action against DIGSA in % for each of these compounds?
Numbers only, in %.

// below: answered compounds
>>> recorded_value("CCOC(=O)[C@@H](C)Oc1nn(-c2ncccc2F)c(-c2cncc(F)c2)c1Br [Example I-227]")
90
>>> recorded_value("O=C(O)COc1nn(-c2ncccc2F)c(-c2ccnc(F)c2)c1Br [Example I-139]")
90

Batch lookup, Post-emergence action against DIGSA in % per entry.
1. COC(=O)C(C)OC(=O)C(C)Oc1nn(-c2ccccn2)c(-c2ccc(F)nc2)c1Br (stereo not drawn) [Example I-288]
2. CCOC(=O)COc1nn(-c2ncccc2F)c(-c2cncc(F)c2)c1C(F)(F)F [Example I-141]
3. COC(=O)[C@@H](C)Oc1nn(-c2nc(F)ccc2F)c(-c2ccc(F)nc2)c1C1CC1 [Example I-298]
4. COC(=O)COc1nn(-c2nc(F)ccc2F)c(-c2ccc(F)nc2)c1C1CC1 [Example I-300]
5. COC(=O)[C@@H](C)Oc1nn(-c2nc(F)ccc2F)c(-c2cncc(F)c2)c1Cl [Example I-154]
6. O=C(O)COc1nn(-c2nc(F)ccc2F)c(-c2ccc(F)nc2)c1C1CC1 [Example I-302]

Result:
1: 90; 2: 90; 3: 80; 4: 80; 5: 90; 6: 80

Quick one: give me Post-emergence action against DIGSA in % for each item below, same order please.
1. COC(=O)COc1nn(-c2ncccc2C)c(-c2cncc(F)c2)c1Br [Example I-179]
2. CCOC(=O)[C@@H](C)Oc1nn(-c2ncccc2F)c(-c2cncc(F)c2)c1C1CC1 [Example I-172]
3. COC(=O)COc1nn(-c2ncccc2F)c(-c2ccc(F)nc2)c1Br [Example I-07]

Result:
[90, 90, 90]

Here are 4 compounds. What values of Post-emergence action against DIGSA in % were reported for them?
1. O=C(COc1nn(-c2ncccc2F)c(-c2ccc(F)nc2)c1C1CC1)OCC1CCCO1 (stereo not drawn) [Example I-274]
2. CCOC(=O)COc1nn(-c2ncccc2C)c(-c2cncc(F)c2)c1Cl [Example I-181]
3. CCOC(=O)COc1nn(-c2nc(F)ccc2F)c(-c2ccc(F)nc2)c1C1CC1 [Example I-348]
4. O=C(COc1nn(-c2ncccc2F)c(-c2ccc(F)nc2)c1C1CC1)OCC1CC1 [Example I-318]

Result:
[90, 90, 90, 90]

Give me Post-emergence action against DIGSA in % for each of these compounds, listed below.
1. CC(C)C(Oc1nn(-c2ccccn2)c(-c2ccc(F)nc2)c1Br)C(=O)O (stereo not drawn) [Example I-347]
2. C[C@@H](Oc1nn(-c2ccccn2)c(-c2ccc(F)nc2)c1Br)C(=O)O [Example I-260]
3. CCOC(=O)COc1nn(-c2nc(F)ccc2F)c(-c2cncc(F)c2)c1Cl [Example I-163]

Result:
[80, 90, 80]

----------
Please respond with reported Post-emergence action against ECHCG in % for every item in the list.
test system: Echinochloa crus-galli (ECHCG); test: Post-emergence herbicidal action against ECHCG; format: in vivo; details: dosage 80 g/ha
One number for each entry, in %.

>>> recorded_value("O=C(O)COc1nn(-c2ncccc2F)c(-c2cncc(F)c2)c1C1CC1")
80
>>> recorded_value("CCOC(=O)COc1nn(-c2ncccc2F)c(-c2ccc(F)nc2)c1Br")
80
>>> recorded_value("COC(=O)[C@@H](C)Oc1nn(-c2ncccc2F)c(-c2ccc(F)nc2)c1C(F)(F)F")
90
>>> recorded_value("O=C(COc1nn(-c2ncccc2F)c(-c2ccc(F)nc2)c1C1CC1)OCC1CCCC1")
80
>>> recorded_value("COC(=O)[C@@H](C)Oc1nn(-c2nc(F)ccc2F)c(-c2cncc(F)c2)c1Br")
80

Dear colleague, could you please provide Post-emergence action against ECHCG in % for the compounds listed below?
1. CCOC(=O)COc1nn(-c2ncccc2F)c(-c2ccc(F)nc2)c1Cl
2. CCOC(=O)[C@@H](C)Oc1nn(-c2ccccn2)c(-c2ccc(F)nc2)c1Br
3. CCOC(=O)[C@@H](C)Oc1nn(-c2nc(F)ccc2F)c(-c2cncc(F)c2)c1C1CC1
4. COC(=O)C(C)COC(=O)COc1nn(-c2ncccc2F)c(-c2ccc(F)nc2)c1C1CC1 (centres unmarked)
5. O=C(O)COc1nn(-c2ncccc2Cl)c(-c2ccc(F)nc2)c1Br

Result:
[90, 80, 100, 80, 80]

// for each compound below, give its Post-emergence action against ECHCG in %
1. C[C@@H](Oc1nn(-c2nc(F)ccc2F)c(-c2cncc(F)c2)c1Cl)C(=O)O
2. O=C(O)COc1nn(-c2ccccn2)c(-c2cncc(F)c2)c1Cl
3. CC(C)N(C)S(=O)(=O)NC(=O)COc1nn(-c2ncccc2F)c(-c2ccc(F)nc2)c1Br
4. O=C(O)CSc1nn(-c2ccccn2)c(-c2cncc(F)c2)c1C1CC1
5. CCOC(=O)COc1nn(-c2nc(F)ccc2F)c(-c2cncc(F)c2)c1Cl
6. COC(=O)CCOC(=O)COc1nn(-c2ccccn2)c(-c2ccc(F)nc2)c1Br [Example I-116]

Result:
80
90
80
80
80
80

Ask: Query (compound): `CCOC(=O)COc1nn(-c2ccccn2)c(-c2ccc(F)nc2)c1Cl` ; field requested: Post-emergence action against ECHCG in %
Result: 90
